Test system: Staphylococcus epidermidis
Experiment: Antibacterial activity against Staphylococcus epidermidis ATCC 12228 assessed as inhibition of bacterial growth incubated for 18 hrs by microbroth dilution assay
Assay type: functional
result-type: MIC (µM)
The reply should be a number in µM, with the unit left off.

Q) Using the record for `N=C(N)NCCC[C@H](NC(=O)CNC(=O)[C@H]1CCCN1C(=O)[C@H](CCCNC(=N)N)NC(=O)[C@H](Cc1ccccc1)NC(=O)[C@H](CCCNC(=N)N)NC(=O)[C@H](Cc1ccccc1)NC(=O)[C@H](CCCNC(=N)N)NC(=O)[C@@H](N)Cc1ccccc1)C(=O)N[C@@H](Cc1ccccc1)C(=O)N[C@@H](CCCNC(=N)N)C(=O)N[C@@H](Cc1ccccc1)C(=O)N[C@@H](CCCNC(=N)N)C(=O)N[C@@H](Cc1ccccc1)C(N)=O` , state its measured MIC.
A) 2

In the following, a different molecule is considered.
Q) Using the record for `CC[C@H](C)[C@H](N)C(=O)N[C@@H](CCCNC(=N)N)C(=O)N[C@H](C(=O)N[C@@H](CCCNC(=N)N)C(=O)N1CCC[C@@H]1C(=O)NCC(=O)N[C@@H](CCCNC(=N)N)C(=O)N[C@H](C(=O)N[C@@H](CCCNC(=N)N)C(=O)N[C@H](C(N)=O)[C@@H](C)CC)[C@@H](C)CC)[C@@H](C)CC` , state its measured MIC.
A) 64
